The reported numbers originate from patent US8541363B2.

biological target: Der p 1 (Dermatophagoides pteronyssinus (European house dust mite), UniProt P08176); experiment: Der p 1 enzyme activity assay (FRET fluorogenic substrate); format: biochemical; details: threshold stated in text; read-out: Der p 1 IC50
Sequence (P08176 99-320): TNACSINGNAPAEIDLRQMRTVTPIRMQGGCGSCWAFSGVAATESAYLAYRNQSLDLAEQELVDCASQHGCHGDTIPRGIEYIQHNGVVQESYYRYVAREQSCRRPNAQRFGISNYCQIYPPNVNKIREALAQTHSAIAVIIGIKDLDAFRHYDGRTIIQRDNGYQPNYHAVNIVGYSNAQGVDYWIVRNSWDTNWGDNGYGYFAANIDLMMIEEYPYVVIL
property.name: IC50

smiles.string: CC(C)C[C@H](NC(=O)[C@H](C)NC(=O)[C@H](Cc1ccccc1)NC(=O)c1ccccc1)C(=O)C(=O)N[C@@H](C)c1ccccc1
assay.system: Der p 1 (Dermatophagoides pteronyssinus (European house dust mite), UniProt P08176)
IC50: < 200 nM

smiles.string: CC(C)[C@H](NC(=O)[C@H](C)NC(=O)[C@@H](NC(=O)c1cccc2nc[nH]c12)C(C)(C)C)C(=O)C(=O)NCc1ccccc1
assay.system: Der p 1 (Dermatophagoides pteronyssinus (European house dust mite), UniProt P08176)
IC50: < 20 nM

smiles.string: CC(C)[C@H](NC(=O)[C@H](C)NC(=O)[C@@H](NC(=O)c1ccccc1C(=O)O)C(C)(C)C)C(=O)C(=O)NCC(=O)N1CCN(C)CC1
assay.system: Der p 1 (Dermatophagoides pteronyssinus (European house dust mite), UniProt P08176)
IC50: < 20 nM

smiles.string: CC(C)[C@H](NC(=O)[C@H](C)NC(=O)[C@@H](NC(=O)c1ccccc1)C(C)(C)C)C(=O)C(=O)N[C@@H]1CCc2ccccc21
assay.system: Der p 1 (Dermatophagoides pteronyssinus (European house dust mite), UniProt P08176)
IC50: < 200 nM

smiles.string: CC(C)[C@H](NC(=O)[C@H](C)NC(=O)[C@@H](NC(=O)c1ccnc(N2CCOCC2)c1)C(C)(C)C)C(=O)C(=O)NCc1ccccc1
assay.system: Der p 1 (Dermatophagoides pteronyssinus (European house dust mite), UniProt P08176)
IC50: < 200 nM

Switching to the query record.
response.value for CC(C)[C@H](NC(=O)[C@H](C)NC(=O)[C@@H](NC(=O)c1ccccc1)C(C)(C)C)C(=O)C(=O)NCc1ccc(C(F)(F)F)cc1 (field: IC50) = < 200 nM
